assay-readout: melting point

// known answers, use as guide
1) CSc1ccc(C=CC(=O)C=Cc2ccc(SC)cc2)cc1 : 143 to 145 °C
2) CCC(COC)Nc1c([N+](=O)[O-])cc(C)c(C)c1[N+](=O)[O-] (single isomer, unassigned; (-)) : 42.5 to 44 °C
3) O=c1ccc(-c2ccc(OCCCCl)cc2)n[nH]1 : 191 to 193 °C
4) COc1ccc2c(c1)c(C(=O)CCC(=O)O)c(C)n2Cc1ccc(Br)cc1 : 215 to 217 °C

Prompt: Which melting point value belongs to O=C(O)c1cccc(CS(=O)(=O)CCO)c1 ?
Response: 67 to 70 °C

Prompt: Which melting point value belongs to COCCOc1cc(Oc2ccccc2)cnc1Nc1nccs1 ?
Response: 141 °C

Prompt: Which melting point value belongs to CC12CCC(C(=NO)C1=NN)C(C)(C)O2 (stereo not given) ?
Response: 138 to 142 °C

Prompt: Which melting point value belongs to COCCN1CCc2ccc(OC)c(Nc3ncc(Cl)c(N[C@@H]4CCCC[C@H]4NS(C)(=O)=O)n3)c2CC1 ?
Response: 93 to 100 °C

Prompt: Which melting point value belongs to CCCCC(=O)N[C@H]1CC[C@H](CCN2CCN(c3nccc4c3OCC4)CC2)CC1 ?
Response: 168 °C

Prompt: Which melting point value belongs to CNC1=NS(=O)(=O)N=C1NCCSCc1ccc(CN(C)C)o1 ?
Response: 92 to 96 °C

###

Documented melting point across a set of molecules

// known answers, use as guide
1. CCOC(=O)c1ncn(-c2nncs2)c1Cl : 184 to 185 °C
2. O=C(c1cc(C(F)(F)F)cc(C(F)(F)F)c1)N1CCC(N2CCN(Cc3ccccc3)CC2)CC1Cc1ccccc1 (stereo unspecified) : 144 °C
3. CCCN(CC(=O)NC12CC3CC(CC(C3)C1)C2)C(=O)NCCCc1ccncc1 : 132 °C
4. Cc1cc(-n2ccc(OCC3CC3)cc2=O)sc1C(=O)NCc1ccccc1 : 175 to 177 °C
5. Cc1ccc2c(c1)C=Cc1sc(C)nc1C2c1cn(C)c(=O)[nH]c1=S (stereo unspecified) : 235 to 237 °C
6. Nc1nonc1NCCCOc1cccc(CN2CCCCC2)c1 : 87 to 88 °C

Prompt: Which melting point value belongs to NC(=S)NN=C(CNC(=O)Cc1ccccc1)c1ccccc1 ?
Response: 170 to 172 °C

Prompt: Which melting point value belongs to CCCCCCCCCCC[C@@H]1CC(O)=C(CCCCCC)C(=O)O1 ?
Response: 106 to 108 °C

Prompt: Which melting point value belongs to CC12CC(CCCCCCl)C3c4ccc(O)cc4CCC3C1CCC2O (stereo unspecified) ?
Response: 159 °C

Prompt: Which melting point value belongs to CCOc1csc2c(=O)c(C(N)=O)cn(C)c12 ?
Response: 286 to 287 °C

Prompt: Which melting point value belongs to NS(=O)(=O)c1ccccc1OCCCl ?
Response: 110 °C

Prompt: Which melting point value belongs to COc1cc(C)c(C=CC(C)=CC=C(C)C(=O)O)c(C)c1C ?
Response: 188 to 190 °C

Prompt: Which melting point value belongs to NC(=NO)c1cccc2ccccc12 ?
Response: 128 to 130 °C

Prompt: Which melting point value belongs to CS(=O)(=O)c1ccc(C(Cc2cccc(F)c2)C(=O)Nc2cnc(CO)cn2)cc1 (stereo unspecified) ?
Response: 82.8 to 98.7 °C

Prompt: Which melting point value belongs to O=C(O)c1ccc(OC(=O)c2cccc(C34CC5CC(CC(C5)C3)C4)c2)cc1 ?
Response: 237 to 239 °C

Prompt: Which melting point value belongs to CCCCCCCCCCc1ccc(COc2ccc(-c3ncc(CCCCCCCCC)cn3)cc2)cc1 ?
Response: 105 °C

Prompt: Which melting point value belongs to CC(C)Oc1ccc(-c2nc3c4ccccc4ccc3n2C)cc1 ?
Response: 144 to 145 °C

###

Documented melting point across a set of molecules

// known answers, use as guide
1. O=C(Oc1ccccc1)c1n[nH]c2c(=O)[nH]c3cc(Cl)ccc3c(=O)c12 : 265 °C
2. CCCCn1ccc(-c2ccc3c(c2)OCCN3C2CCOCC2)c(Cl)c1=O : 141 °C
3. Cn1ncc(N(CCCCl)Cc2ccccc2)c(Cl)c1=O : 92 to 93 °C
4. CNC(=O)N(O)C(C)c1ccc(OC)cc1 (stereo not given) : 102 to 104 °C
5. NS(=O)(=O)c1ccc(-n2nc(CCCNC(=O)NC34CC5CC(CC(C5)C3)C4)cc2-c2ccccc2)cc1 : 139 to 144 °C

Next item in the queue.
Prompt: Which melting point value belongs to O=C(N[C@@H](Cc1ccccc1)[C@@H](O)[C@H](O)[C@H](Cc1ccccc1)NC(=O)OCc1ccccc1)OCc1ccccc1 ?
Response: 215 to 216 °C

###

assay-readout: melting point

// known answers, use as guide
1. COC(=O)C1CCN(c2ccc(Cl)c(CBr)c2Cl)C1 (stereo unspecified) : 94 °C
2. CCn1cc(C2(c3cccc(-c4cncc(Cl)c4)c3)N=C(N)N(C)C2=O)cn1 (stereo unspecified) : 205 to 210 °C
3. COc1ccc(NC(=O)c2cccnc2)c2c1oc1ccccc12 : 200 to 203 °C
4. CN(CCO)c1nc2ccccc2o1 : 62 to 63 °C
5. CCCc1c(OCCCCCc2c(O)c(O)c(Cl)c(Cl)c2Cl)ccc(C(=O)O)c1O : 193 to 196 °C
6. Oc1ccc(C2=COc3ccccc3O2)cc1 : 137 to 140 °C
7. CC(=S)NC[C@H]1CN(c2ccc(N3CCC(C#N)(C(C#N)C#N)CC3)c(F)c2)C(=O)O1 : 178 to 180 °C
8. O=C(OCc1ccccc1)c1ccc(OCc2ccccc2)cc1OCc1ccccc1 : 118 to 120 °C
9. COCCOc1cccc(-c2ccc(C3CCN(S(=O)(=O)C(C)(C)C(=O)O)CC3)cc2C)n1 : 142 to 146 °C
10. Nc1nc(-c2ccccc2)c(-c2ccc(=O)n(CC3CC3)n2)s1 : 204 to 206 °C

Prompt: Which melting point value belongs to Oc1ccc(-c2nnn(-c3ccc(C(F)(F)F)cc3F)c2Cl)c(Cl)c1 ?
Response: 150 to 152 °C

Prompt: Which melting point value belongs to CCOC(=O)c1c(CN2CCNCC2)nc2cc(OC)c(OC)cc2c1-c1ccc(OC)c(OC)c1 ?
Response: 192 to 193 °C

Prompt: Which melting point value belongs to COC(=O)c1cc(OC)c(OS(=O)(=O)C(F)(F)F)cc1[N+](=O)[O-] ?
Response: 69 to 70 °C

Prompt: Which melting point value belongs to N#Cc1sc(N)c(C#N)c1N1CCCCC1 ?
Response: 183 to 184 °C

Prompt: Which melting point value belongs to CC(C)(C)c1nc(-c2ncn3c2COc2cc(F)ccc2-3)no1 ?
Response: 133 to 135 °C

Prompt: Which melting point value belongs to Nc1ccc(Oc2cc(Cl)ncn2)cc1 ?
Response: 136 to 138 °C

Prompt: Which melting point value belongs to Cc1cc(C)nc(OC(C)C(=O)O)n1 (stereo unspecified) ?
Response: 117 °C

Prompt: Which melting point value belongs to Nc1cccc(-c2ccc(CC3CCCCN3Cc3ccccc3)cc2)n1 (stereo unspecified) ?
Response: 70 to 85 °C

Prompt: Which melting point value belongs to Clc1ccc(-c2nnc(NCCN3CCCCC3)c(Cc3ccccc3)n2)cc1 ?
Response: 196 °C

Prompt: Which melting point value belongs to COc1cc(/C=C/c2cc(/C=C/c3c[nH]c4ccccc34)n[nH]2)ccc1OCc1ccccn1 ?
Response: 120 to 130 °C

Prompt: Which melting point value belongs to CCCCCCCCCCCCCCCCc1ccc(S(=O)(=O)Nc2nncs2)cc1 ?
Response: 118 to 119 °C

###

Documented melting point across a set of compounds

1) Cn1c(OCC(F)(F)C(F)F)n[nH]c1=O : 101 °C
2) CCCC[C@H](NC(=O)[C@H](CC(=O)O)NC(=O)Nc1ccc([N+](=O)[O-])cc1)C(=O)OC : 204 to 205 °C
3) Cc1c(Cl)cccc1S(=O)(=O)Nc1ccc2sccc2c1 : 108 to 109 °C
4) COc1nc(S(C)(=O)=O)cnc1NS(=O)(=O)c1cccc(Cl)c1Cl : 237 to 238 °C
5) O=C(O)CCCc1cc2nc(Cl)ccc2n1S(=O)(=O)c1c(F)cc(F)cc1F : 135 to 150 °C

Next item in the queue.
Prompt: Which melting point value belongs to O=C(O)C1CCc2c(sc3cc(F)ccc23)C1 (stereo unspecified) ?
Response: 195 to 198 °C

###

assay-readout: melting point (°C)

1) O=C(O)C1CCc2c(OCc3ccccc3)cccc21 (stereo not given) : 133
2) CCCCNC(=O)N(C)c1cccc(-c2ccc(C=C(OC)C(=O)O)cc2)c1 : 146
3) C#C[C@]1(OC(C)=O)CC[C@H]2[C@@H]3CC(=C)C4=CC(=O)CC[C@@H]4[C@H]3CC[C@@]21C : 157
